Recorded values, source patent US20250179088A9.

measured target: TLR7 (Homo sapiens, UniProt Q9NYK1)
Sequence (Q9NYK1 27-1049): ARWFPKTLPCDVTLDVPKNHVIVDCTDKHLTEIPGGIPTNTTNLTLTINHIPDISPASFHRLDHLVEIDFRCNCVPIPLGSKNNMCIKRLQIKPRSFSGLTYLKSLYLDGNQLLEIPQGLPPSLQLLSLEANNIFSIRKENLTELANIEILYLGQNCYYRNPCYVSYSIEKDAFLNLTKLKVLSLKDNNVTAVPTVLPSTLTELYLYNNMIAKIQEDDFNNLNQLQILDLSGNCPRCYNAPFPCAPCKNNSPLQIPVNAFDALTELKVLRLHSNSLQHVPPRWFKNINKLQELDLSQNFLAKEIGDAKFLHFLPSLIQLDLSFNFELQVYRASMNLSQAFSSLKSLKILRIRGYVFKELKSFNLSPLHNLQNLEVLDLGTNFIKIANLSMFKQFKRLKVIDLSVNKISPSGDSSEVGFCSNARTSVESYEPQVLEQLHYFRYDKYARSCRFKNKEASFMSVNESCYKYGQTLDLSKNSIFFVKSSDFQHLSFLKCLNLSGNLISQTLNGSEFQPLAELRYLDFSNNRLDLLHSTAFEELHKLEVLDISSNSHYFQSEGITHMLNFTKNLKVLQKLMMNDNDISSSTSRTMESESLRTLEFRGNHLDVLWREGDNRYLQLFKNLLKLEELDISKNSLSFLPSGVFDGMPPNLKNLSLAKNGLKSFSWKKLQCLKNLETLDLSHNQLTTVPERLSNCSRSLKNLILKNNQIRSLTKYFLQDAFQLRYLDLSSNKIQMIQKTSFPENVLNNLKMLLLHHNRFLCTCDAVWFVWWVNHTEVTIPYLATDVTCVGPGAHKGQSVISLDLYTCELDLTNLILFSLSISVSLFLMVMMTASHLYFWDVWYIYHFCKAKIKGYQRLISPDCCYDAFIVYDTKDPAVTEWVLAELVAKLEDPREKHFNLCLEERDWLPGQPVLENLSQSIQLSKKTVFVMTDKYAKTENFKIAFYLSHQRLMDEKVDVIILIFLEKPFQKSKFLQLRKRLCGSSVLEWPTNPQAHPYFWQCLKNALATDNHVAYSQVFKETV
assay method text: Reporter gene assay, HEK-Blue TLR7 reporter cells (SEAP)
Kindly supply the reported EC50 values for the records listed here.
All answers are understood in nM, so give the number only.

Reported EC50 for CCCCc1nc2c(N)nc3ccsc3c2n1CCCCCNCCCCCO was 37

compound CCCCc1nc2c(N)nc3ccsc3c2n1Cc1cccc(CNCCCCCO)c1 , EC50 observed: 290

The value of EC50 measured for the compound CCCCc1nc2c(N)nc3ccsc3c2n1Cc1cccc(CN2CCN(CCN3CCOCC3)CC2)c1 turned out to be 550

* * *

measured target: TLR8 (Homo sapiens)
Sequence (Q9NR97 27-1041): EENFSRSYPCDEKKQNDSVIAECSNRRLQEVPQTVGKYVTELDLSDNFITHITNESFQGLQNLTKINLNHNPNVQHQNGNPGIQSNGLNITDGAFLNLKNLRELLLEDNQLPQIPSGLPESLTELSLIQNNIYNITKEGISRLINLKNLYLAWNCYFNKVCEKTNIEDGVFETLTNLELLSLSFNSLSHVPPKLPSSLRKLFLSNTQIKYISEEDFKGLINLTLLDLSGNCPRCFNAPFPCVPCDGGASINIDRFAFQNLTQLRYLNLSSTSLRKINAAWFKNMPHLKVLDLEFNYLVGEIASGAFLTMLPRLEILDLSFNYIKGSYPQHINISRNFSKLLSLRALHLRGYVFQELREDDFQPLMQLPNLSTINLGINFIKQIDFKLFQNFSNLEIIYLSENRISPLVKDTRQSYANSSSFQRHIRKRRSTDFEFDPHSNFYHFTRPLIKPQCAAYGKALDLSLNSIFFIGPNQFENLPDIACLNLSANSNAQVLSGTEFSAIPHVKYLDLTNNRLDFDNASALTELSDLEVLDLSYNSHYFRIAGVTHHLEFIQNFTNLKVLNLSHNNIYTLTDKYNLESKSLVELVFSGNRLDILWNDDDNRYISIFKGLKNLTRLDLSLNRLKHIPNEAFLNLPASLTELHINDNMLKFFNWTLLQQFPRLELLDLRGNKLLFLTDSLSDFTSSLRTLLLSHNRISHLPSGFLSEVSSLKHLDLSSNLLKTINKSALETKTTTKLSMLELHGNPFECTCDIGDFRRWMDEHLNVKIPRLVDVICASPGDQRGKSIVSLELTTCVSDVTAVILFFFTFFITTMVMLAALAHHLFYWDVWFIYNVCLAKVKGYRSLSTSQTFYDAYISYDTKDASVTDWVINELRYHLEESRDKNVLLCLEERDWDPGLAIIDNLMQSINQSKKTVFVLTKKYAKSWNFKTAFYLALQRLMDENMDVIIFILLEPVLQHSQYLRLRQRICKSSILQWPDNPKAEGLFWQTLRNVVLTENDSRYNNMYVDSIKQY
assay method text: Reporter gene assay, HEK-Blue TLR8 reporter cells (SEAP)
readout: EC50

Lab note: compound CCCCc1nc2c(N)nc3ccsc3c2n1Cc1ccccc1CNCc1ccc(CO)cc1 tested on TLR8 (Homo sapiens); recorded EC50 was > 1 µM

Item CCCCc1nc2c(N)nc3ccsc3c2n1Cc1nc(CNCc2ccc(CO)cc2)cs1 ; assay system TLR8 (Homo sapiens); EC50 reported as > 1 µM

CCNCc1nc2c(N)nc3ccsc3c2n1Cc1ccc(CN2CCNCC2)cc1 on TLR8 (Homo sapiens) gives EC50 = > 1 µM

Summary line: CCCCc1nc2c(N)nc3ccsc3c2n1Cc1ccccc1CN1CCN(C(=O)OC(C)(C)C)CC1 , TLR8 (Homo sapiens), reported EC50 = > 1 µM

Form field, EC50 with TLR8 (Homo sapiens), item CCCCc1nc2c(N)nc3ccsc3c2n1CCCCCNCC(C)(C)O : > 1 µM

Lab entry: TLR8 (Homo sapiens) assay, compound CCOCc1nc2c(N)nc3ccsc3c2n1Cc1ccc(CNC2CC(F)(F)C2)cc1 , EC50 = 1.13 µM

Lab note: compound CCCCc1nc2c(N)nc3ccsc3c2n1Cc1cccc(CN2CCN(C(=O)OC(C)(C)C)CC2)c1 tested on TLR8 (Homo sapiens); recorded EC50 was > 1 µM

Known value: TLR8 (Homo sapiens) EC50 of the compound CCCCc1nc2c(N)nc3ccsc3c2n1Cc1ccc(CN2CCN(C(=O)OC(C)(C)C)CC2)cc1 equals > 1 µM

Kindly note: TLR8 (Homo sapiens), CCCCc1nc2c(N)nc3ccsc3c2n1Cc1ccc(CN[C@H](C(=O)O)[C@@H](C)O)cc1 , EC50 value reported: > 1 µM

# EC50 measured on TLR8 (Homo sapiens) for item CCCCc1nc2c(N)nc3ccsc3c2n1Cc1cccc(CNN)c1 = > 1 µM

Case CCCCc1nc2c(N)nc3ccsc3c2n1Cc1cccc(CN2CCNCC2)c1 , TLR8 (Homo sapiens), EC50 recorded as > 1 µM

EC50 on TLR8 (Homo sapiens) for CCCCc1nc2c(N)nc3ccsc3c2n1Cc1ncc(CNCC(C)(C)O)s1 is > 1 µM

Summary: CCCCc1nc2c(N)nc3ccsc3c2n1Cc1ccc(CN2CCN(CCc3ccccn3)CC2)cc1 , TLR8 (Homo sapiens), EC50 = > 1 µM

Reported EC50 (TLR8 (Homo sapiens)) for entry CCCCc1nc2c(N)nc3ccsc3c2n1Cc1cccc(CNCCCCCO)c1 is 0.12 µM

TLR8 (Homo sapiens) data for CCCCc1nc2c(N)nc3ccsc3c2n1Cc1ccc(C[n+]2ccccc2)cc1 ; its EC50: > 1 µM

Fill in: TLR8 (Homo sapiens) EC50 for CCCCc1nc2c(N)nc3ccsc3c2n1Cc1ccc(CNc2ccc3c(c2)CCN(C(=O)OC(C)(C)C)C3)cc1 = > 1 µM

The reported EC50 value, TLR8 (Homo sapiens), for CCCCc1nc2c(N)nc3ccsc3c2n1Cc1ccc(CNCC2CCN(C(=O)OC(C)(C)C)CC2)cc1 reads > 1 µM

# CCCCc1nc2c(N)nc3ccsc3c2n1Cc1cccc(CNCc2cc[nH]c2)c1 with TLR8 (Homo sapiens): EC50 is 0.49 µM

Measured on TLR8 (Homo sapiens), CCCCc1nc2c(N)nc3ccsc3c2n1Cc1ccc(CNCCNC(=O)OC(C)(C)C)cc1 has a documented EC50 of > 1 µM

Here CCOCc1nc2c(N)nc3ccsc3c2n1Cc1ccc(CN[C@H](CO)[C@@H](C)CC)cc1 was tested on TLR8 (Homo sapiens), and its EC50 came to 0.674 µM

Entry CCCCc1nc2c(N)nc3ccsc3c2n1CCCCCN1CCN(CCN2CCOCC2)CC1 , TLR8 (Homo sapiens) data, EC50 value: > 1 µM

EC50 of CCCCc1nc2c(N)nc3ccsc3c2n1Cc1ccc(CN2CCN(CCNC(=O)OC(C)(C)C)CC2)cc1 , assay on TLR8 (Homo sapiens), is > 1 µM

Field EC50 (system: TLR8 (Homo sapiens)) for entry CCCCc1nc2c(N)nc3ccsc3c2n1Cc1ccccc1CN = > 1 µM

Sample CCCCc1nc2c(N)nc3ccsc3c2n1Cc1ccc(CN2CCC(CNC(=O)OC(C)(C)C)CC2)cc1 , system: TLR8 (Homo sapiens). Its EC50 is > 1 µM

Entry CCCCc1nc2c(N)nc3ccsc3c2n1Cc1cccc(CN2CCC(c3ccncc3)CC2)c1 : EC50 on TLR8 (Homo sapiens) = > 1 µM

Item CCCCc1nc2c(N)nc3ccsc3c2n1CCCCCNCCCCCO was tested on TLR8 (Homo sapiens); the reported EC50 is > 1 µM

Param item: CCCCc1nc2c(N)nc3ccsc3c2n1Cc1ccc(CNCCCC[C@H](N)C(=O)O)cc1 ; param system: TLR8 (Homo sapiens); output EC50: > 1 µM

Item CCCCc1nc2c(N)nc3ccsc3c2n1Cc1ccccc1CN1CCC(c2ccncc2)CC1 was tested on TLR8 (Homo sapiens); the reported EC50 is > 1 µM

The compound CCCCc1nc2c(N)nc3ccsc3c2n1Cc1nc(CNCCCCCO)cs1 , tested on TLR8 (Homo sapiens), showed EC50 of 0.073 µM

Tested system TLR8 (Homo sapiens); EC50 recorded for CCCCc1nc2c(N)nc3ccsc3c2n1Cc1ccccc1CN1CCN(CCN2CCOCC2)CC1 was > 1 µM

Per the reported TLR8 (Homo sapiens) data, CCCCc1nc2c(N)nc3ccsc3c2n1Cc1ccc(CNc2nnc[nH]2)cc1 has EC50 of > 1 µM

Value sought: EC50, system TLR8 (Homo sapiens), item CCCCc1nc2c(N)nc3ccsc3c2n1Cc1ccc(CNC2CCCN(C(=O)OC(C)(C)C)C2)cc1 (centres unmarked) . Result: > 1 µM

* * *

measured target: TLR8 (Homo sapiens)
Sequence (Q9NR97 27-1041): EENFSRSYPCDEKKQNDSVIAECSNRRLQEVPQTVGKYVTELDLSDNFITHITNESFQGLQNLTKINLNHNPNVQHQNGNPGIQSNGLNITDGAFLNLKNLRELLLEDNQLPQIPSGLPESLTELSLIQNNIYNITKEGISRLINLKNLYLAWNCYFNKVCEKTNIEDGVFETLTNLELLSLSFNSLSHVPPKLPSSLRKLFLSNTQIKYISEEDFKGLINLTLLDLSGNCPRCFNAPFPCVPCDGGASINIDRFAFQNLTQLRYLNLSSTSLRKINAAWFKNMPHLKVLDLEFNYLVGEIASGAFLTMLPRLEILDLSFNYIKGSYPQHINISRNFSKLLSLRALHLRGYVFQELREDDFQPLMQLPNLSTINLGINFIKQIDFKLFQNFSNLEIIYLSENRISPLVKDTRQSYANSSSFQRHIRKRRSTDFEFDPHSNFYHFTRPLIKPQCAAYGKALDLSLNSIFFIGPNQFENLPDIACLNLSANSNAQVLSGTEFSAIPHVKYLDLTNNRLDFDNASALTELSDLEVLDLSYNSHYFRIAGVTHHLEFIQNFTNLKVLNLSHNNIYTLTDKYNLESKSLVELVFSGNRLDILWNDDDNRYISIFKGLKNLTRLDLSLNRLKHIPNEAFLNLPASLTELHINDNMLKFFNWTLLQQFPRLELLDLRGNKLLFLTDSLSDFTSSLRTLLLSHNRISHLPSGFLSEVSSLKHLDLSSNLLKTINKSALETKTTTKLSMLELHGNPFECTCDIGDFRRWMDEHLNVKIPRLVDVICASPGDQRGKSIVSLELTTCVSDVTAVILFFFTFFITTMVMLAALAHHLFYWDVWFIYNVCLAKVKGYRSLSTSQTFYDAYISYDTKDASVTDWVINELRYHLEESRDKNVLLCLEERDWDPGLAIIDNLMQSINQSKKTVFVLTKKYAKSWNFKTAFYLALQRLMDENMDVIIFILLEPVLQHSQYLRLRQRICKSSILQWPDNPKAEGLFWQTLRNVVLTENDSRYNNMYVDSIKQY
assay method text: Reporter gene assay, HEK-Blue TLR8 reporter cells (SEAP)
readout: EC50

// EC50 value for CCOCc1nc2c(N)nc3ccsc3c2n1Cc1ccc(CNCc2cc[nH]c2)cc1 : > 1 µM

Briefly, EC50 measured for CCCCc1nc2c(N)nc3ccsc3c2n1CCCCCNCc1ccc(CO)cc1 : 0.26 µM

The value of EC50 measured for the compound CCCCc1nc2c(N)nc3ccsc3c2n1Cc1ccccc1CNCc1cc[nH]c1 turned out to be > 1 µM

Consider CCCCc1nc2c(N)nc3ccsc3c2n1Cc1ccc(CN[C@H](CO)[C@@H](C)CC)cc1 . Its measured EC50 is 0.134 µM

// EC50 lookup, compound = CCCCc1nc2c(N)nc3ccsc3c2n1Cc1cccc(CO)c1 , result: > 1 µM

Entry CCCCc1nc2c(N)nc3ccsc3c2n1CCCCCNCc1cc[nH]c1 ; EC50 = > 1 µM

So for CCCCc1nc2c(N)nc3ccsc3c2n1Cc1cccc(CN2CCN(CCN3CCOCC3)CC2)c1 , the logged EC50 turned out to be > 1 µM

Reported EC50 ( CCCCc1nc2c(N)nc3ccsc3c2n1Cc1cccc(CNCC(C)(C)N2CCOCC2)c1 ) = 0.95 µM

The compound listed as CCCCc1nc2c(N)nc3ccsc3c2n1Cc1ccc(CN(CCC)CCC)cc1 has a reported EC50 of 0.404 µM

CCCCc1nc2c(N)nc3ccsc3c2n1Cc1ccc(CN(CC(=O)O)CC(=O)O)cc1 has a reported EC50 of > 1 µM

GET /value?item= CCCCc1nc2c(N)nc3ccsc3c2n1Cc1ccc(CNCCCCNC(=O)OCc2ccccc2)cc1 &field=EC50 returns > 1 µM

For CCCCc1nc2c(N)nc3ccsc3c2n1CCCCCN(CC)CC the compound record lists EC50 as 0.38 µM

The compound listed as CCCCc1nc2c(N)nc3ccsc3c2n1Cc1cccc(CNCc2ccc(CO)cc2)c1 shows EC50 equal to 0.31 µM

CCCCc1nc2c(N)nc3ccsc3c2n1Cc1ccc(CN2CCCCC2)cc1 yielded EC50 of > 1 µM

Lab note: CCCCc1nc2c(N)nc3ccsc3c2n1Cc1ccc(CN(CCN(CCCC)CCCC)CCN(CCCC)CCCC)cc1 gave EC50 of > 1 µM

The compound CCOCc1nc2c(N)nc3ccsc3c2n1Cc1ccc(CN2CCNCC2)cc1 showed EC50 equal to > 1 µM

EC50 for CCOCc1nc2c(N)nc3ccsc3c2n1Cc1ccc(CN(CC)CC)cc1 is 1.03 µM

The recorded EC50 for CCCCc1nc2c(N)nc3ccsc3c2n1Cc1ccc(C[N+]23CCN(CC2)CC3)cc1 is > 1 µM

Input CCCCc1nc2c(N)nc3ccsc3c2n1Cc1ccccc1CNCCCN1CCN(CCCN)CC1 . Output EC50: > 1 µM

get_value(item= CCCCc1nc2c(N)nc3ccsc3c2n1CCCCCNCC(C)(C)N1CCOCC1 , readout=EC50) returns 0.57 µM

According to the records, this compound CCCCc1nc2c(N)nc3ccsc3c2n1Cc1ccccc1CN(CC)CC displays EC50 of > 1 µM
